- tgt: HRgpA-6H (Porphyromonas gingivalis) (UniProt P28784)
- assay explanation: ELISA on coated HRgpA-6H
Known OD450nm of a selection of binders
Lab note: write the figure by itself, no unit.

Known OD450nm results, listed for orientation:
binder	OD450nm
KB001 mouse Fab FASEBA VH S57M (Fab, V domains shown) VH: EVQLKQSGPGLVAPSQSLSITCTVSGFSLSIYSVHWVRQPPGKGLEWLGMIWGGGSMDYNSALKSRLSISKDNSKSQVFLKMNSLQTDDTAMYYCARNGNFYAMDYWGQGTSVTVSS VL: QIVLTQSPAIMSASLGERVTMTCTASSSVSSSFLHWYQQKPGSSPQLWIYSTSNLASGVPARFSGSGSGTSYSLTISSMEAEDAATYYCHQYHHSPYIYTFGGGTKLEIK	0.748
KB001 mouse Fab FASEBA VH G53S (Fab, V domains shown) VH: EVQLKQSGPGLVAPSQSLSITCTVSGFSLSIYSVHWVRQPPGKGLEWLGMIWSGGSSDYNSALKSRLSISKDNSKSQVFLKMNSLQTDDTAMYYCARNGNFYAMDYWGQGTSVTVSS VL: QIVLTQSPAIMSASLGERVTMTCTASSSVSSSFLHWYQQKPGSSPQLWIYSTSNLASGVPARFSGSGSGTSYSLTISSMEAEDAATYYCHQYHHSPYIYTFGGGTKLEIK	0.686
KB001 mouse Fab FASEBA VH A62L (Fab, V domains shown) VH: EVQLKQSGPGLVAPSQSLSITCTVSGFSLSIYSVHWVRQPPGKGLEWLGMIWGGGSSDYNSLLKSRLSISKDNSKSQVFLKMNSLQTDDTAMYYCARNGNFYAMDYWGQGTSVTVSS VL: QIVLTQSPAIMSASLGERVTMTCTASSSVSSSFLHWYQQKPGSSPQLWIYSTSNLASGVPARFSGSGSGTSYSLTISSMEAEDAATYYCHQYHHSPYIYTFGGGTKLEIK	0.812

INPUT: So what does the record say about OD450nm for KB001 mouse Fab FASEBA VH Y106T (Fab, V domains shown) VH: EVQLKQSGPGLVAPSQSLSITCTVSGFSLSIYSVHWVRQPPGKGLEWLGMIWGGGSSDYNSALKSRLSISKDNSKSQVFLKMNSLQTDDTAMYYCARNGNFYAMDTWGQGTSVTVSS VL: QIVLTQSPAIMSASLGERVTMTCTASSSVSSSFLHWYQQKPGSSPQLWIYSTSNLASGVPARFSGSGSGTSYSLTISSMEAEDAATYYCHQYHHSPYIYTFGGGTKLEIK ?
OUTPUT: 0.827

INPUT: Same for KB001 mouse Fab FASEBA VH K64A (Fab, V domains shown) VH: EVQLKQSGPGLVAPSQSLSITCTVSGFSLSIYSVHWVRQPPGKGLEWLGMIWGGGSSDYNSALASRLSISKDNSKSQVFLKMNSLQTDDTAMYYCARNGNFYAMDYWGQGTSVTVSS VL: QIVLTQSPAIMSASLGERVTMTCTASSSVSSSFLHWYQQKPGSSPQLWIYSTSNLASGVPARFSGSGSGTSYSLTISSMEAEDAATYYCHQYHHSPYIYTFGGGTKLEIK
OUTPUT: 0.89

The measured values listed here are drawn from patent US20230365662A1.
